testSystem: Acid ceramidase (Homo sapiens) (UniProt Q13510)
Sequence (Q13510 22-142 limits assumed): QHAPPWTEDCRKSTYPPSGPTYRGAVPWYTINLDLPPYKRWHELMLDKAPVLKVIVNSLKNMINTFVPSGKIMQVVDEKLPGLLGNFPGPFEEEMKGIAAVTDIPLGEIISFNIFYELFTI
Sequence (Q13510 143-395 limits assumed): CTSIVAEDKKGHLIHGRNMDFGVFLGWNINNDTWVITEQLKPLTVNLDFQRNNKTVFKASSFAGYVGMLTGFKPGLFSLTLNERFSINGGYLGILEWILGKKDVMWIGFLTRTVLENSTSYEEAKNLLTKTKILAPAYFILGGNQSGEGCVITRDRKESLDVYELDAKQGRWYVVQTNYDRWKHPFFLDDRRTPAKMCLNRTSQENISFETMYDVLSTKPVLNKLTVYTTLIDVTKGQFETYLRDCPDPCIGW
methodSummary: Activity of human recombinant acid ceramidase expressed in baculovirus infected Sf9 cells assessed as hydrolysis at 20 uM after 150 mins by TLC-based fluorescence imaging
Set-up: scale not given: the % may be the effect or the level left
quantity: Activity (%)

1. CCCCCCCCCCCCCCCC(=O)N[C@@H](CO)[C@H](O)/C=C/CCCCCCCCCNc1ccc([N+](=O)[O-])c2nonc12 = 5.6

[I] CCCCCCCCCCCCCCCC(=O)N[C@@H](CO)[C@H](O)/C=C/CCCCCCCCCOc1ccc2c(=O)cc3oc4cc(N(CC)CC)ccc4nc-3c2c1
[II] CCCCCCCCCCCCC/C=C/[C@@H](O)[C@H](CO)NC(=O)CCCCCCCCCCCNc1ccc([N+](=O)[O-])c2nonc12
Exercise: Please compare: I and II . Report which one has the smaller Activity value. Select an item and report its label.
Solution: I
